# tested_target: T1, human ROR1 on cells (HEK293T-hROR1, PANC-1, A549) (human, UniProt Q01973 30-937)
# T1 construct: whole, on cells; one molecule for the three cell lines; also called huROR1; cell surface ROR1
# T1 sequence (Q01973 30-937): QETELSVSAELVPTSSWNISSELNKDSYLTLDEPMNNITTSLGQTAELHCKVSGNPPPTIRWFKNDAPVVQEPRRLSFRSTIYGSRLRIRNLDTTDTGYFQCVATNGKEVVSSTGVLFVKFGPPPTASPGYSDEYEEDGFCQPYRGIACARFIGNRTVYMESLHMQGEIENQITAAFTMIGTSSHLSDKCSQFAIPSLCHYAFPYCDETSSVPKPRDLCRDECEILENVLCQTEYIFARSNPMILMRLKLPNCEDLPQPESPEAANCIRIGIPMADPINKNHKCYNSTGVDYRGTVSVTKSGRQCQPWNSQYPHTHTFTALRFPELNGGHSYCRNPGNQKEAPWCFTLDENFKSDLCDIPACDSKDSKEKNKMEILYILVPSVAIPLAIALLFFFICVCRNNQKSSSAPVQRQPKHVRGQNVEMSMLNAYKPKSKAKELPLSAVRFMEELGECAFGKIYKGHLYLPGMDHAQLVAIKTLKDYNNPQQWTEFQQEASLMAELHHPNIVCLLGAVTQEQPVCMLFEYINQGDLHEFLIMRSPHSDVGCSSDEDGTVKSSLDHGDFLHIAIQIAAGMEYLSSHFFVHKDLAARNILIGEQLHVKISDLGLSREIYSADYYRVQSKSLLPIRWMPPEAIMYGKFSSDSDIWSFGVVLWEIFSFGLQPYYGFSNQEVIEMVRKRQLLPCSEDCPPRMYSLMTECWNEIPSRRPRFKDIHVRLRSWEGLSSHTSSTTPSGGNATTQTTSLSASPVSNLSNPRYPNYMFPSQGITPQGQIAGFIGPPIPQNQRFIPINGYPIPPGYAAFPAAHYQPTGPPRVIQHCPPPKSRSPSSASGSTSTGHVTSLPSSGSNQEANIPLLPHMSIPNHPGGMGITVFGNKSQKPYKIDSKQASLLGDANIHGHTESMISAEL
# measurement_protocol: flow cytometry, A549 cells
# Experimental: In brief, anti-ROR1 antibodies were serially diluted in staining buffer (PBS containing 2% FBS). Antibody solution was incubated with 1×10⁵ cells at 4° C. for 1 hour. […] After 1-hour incubation at 4° C., cells were washed twice with staining buffer and subjected to flow cytometry. PR000374 (Bench marker 1) and non-relevant IgG isotype control (Crownbio) were used as positive and negative controls, respectively.
result_type: EC50 (µg/mL)

binder	result_type	endpoint_value
PR303125 (antibody, human IgG1, V domains shown, HCAb (heavy chain-only, human IgG1 Fc), no light chain) VH: EVQLLESGGGLVQPGGSLRLSCAASGFTFSSHAMSWVRQAPGKGLEWVSAISGSGDSTHYAASVKGRFTISRDNSKNTLYLQMNSLRAEDTAVYYCETLLRFLESLGNDGFKIWGQGTMVTVSS	EC50	0.16
PR303191 (antibody, human IgG1, V domains shown, HCAb (heavy chain-only, human IgG1 Fc), no light chain) VH: EVQLLESGGGLVQPGGSLRLSCAASGFIFGSYAMSWVRQAPGKGLEWVSGISGTGGNTYYADSVKGRFTISRDNSKNTLYLQMNSLRAEDTAVYFCERGITIHGVVIIPPDYRGQGTLVTVSS	EC50	0.01
